# Study target: PKA (catalytic subunit, bovine heart) (Bos taurus)
# Construct: PKA (catalytic subunit, bovine heart, Calbiochem 539486); purchased Calbiochem 539486; host or cells: bovine heart (tissue-derived)
# Test details: Protein Kinase A inhibition assay (PKA), radioactivity-based
# Assay type: biochemical
# Experimental parameters: 10 μM compound; NA = not active
Overview of reported inhibition at 10 µM across a group of molecules:
Readout kind: inhibition at 10 µM

# Molecule, Result value
rows = [
    ("CC(=O)O[C@H]1C=CC(n2c3ccccc3c3c4c(c5c6ccccc6[nH]c5c32)C(=O)NC4=O)CC1 (mixture of isomers)", "17.1%"),
    ("CC(=O)O[C@@H]1C=CC(n2c3ccccc3c3c4c(c5c6ccccc6[nH]c5c32)C(=O)NC4=O)CC1 (mixture of isomers)", "17.3%"),
    ("O=C1NC(=O)c2c1c1c3ccccc3[nH]c1c1c2c2ccccc2n1C1C=C[C@H](O)C1 (mixture of isomers)", "19.9%"),
    ("N[C@H]1C=CC(n2c3ccccc3c3c4c(c5c6ccccc6[nH]c5c32)C(=O)NC4=O)C1 (mixture of isomers)", "98%"),
    ("O=C1NC(=O)c2c1c1c3ccccc3[nH]c1c1c2c2ccccc2n1C1CC[C@H](O)[C@@H](O)[C@H]1O (mixture of isomers)", "35.2%"),
    ("O=C1NC(=O)c2c1c1c3ccccc3[nH]c1c1c2c2ccccc2n1C1C=C[C@H](Cl)CC1 (mixture of isomers)", "43.4%"),
    ("O=C1NC(=O)c2c1c1c3ccccc3[nH]c1c1c2c2ccccc2n1C1C=C[C@H](Nc2ccccc2)CC1 (mixture of isomers)", "26.5%"),
    ("O=C1NC(=O)c2c1c1c3ccccc3[nH]c1c1c2c2ccccc2n1C1C=C[C@@H](O)C1 (mixture of isomers)", "18.8%"),
]

---

# Study target: GSK3β (Homo sapiens, UniProt P49841)
# Construct: purchased Upstate Discovery
# Sequence (P49841 whole entry, species assumed): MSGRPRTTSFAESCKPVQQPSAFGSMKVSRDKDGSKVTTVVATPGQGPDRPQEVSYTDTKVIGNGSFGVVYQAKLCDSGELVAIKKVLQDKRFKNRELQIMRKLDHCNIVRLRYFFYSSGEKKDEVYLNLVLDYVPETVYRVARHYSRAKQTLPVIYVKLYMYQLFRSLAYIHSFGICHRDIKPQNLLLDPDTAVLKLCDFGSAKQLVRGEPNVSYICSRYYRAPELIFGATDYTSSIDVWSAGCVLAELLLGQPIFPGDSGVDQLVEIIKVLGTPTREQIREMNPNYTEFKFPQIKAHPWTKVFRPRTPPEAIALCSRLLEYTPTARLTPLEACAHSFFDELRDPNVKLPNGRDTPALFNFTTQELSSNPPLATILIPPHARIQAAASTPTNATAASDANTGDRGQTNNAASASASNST
# Test details: Glycogen Synthase Kinase 3β inhibition assay, radioactivity-based
# Assay type: biochemical
# Experimental parameters: 10 μM compound; NA = not active

# Compound, Study target, inhibition at 10 µM / %
measured = [
    ("CC(=O)O[C@@H]1C=CC(n2c3ccccc3c3c4c(c5c6ccccc6[nH]c5c32)C(=O)NC4=O)CC1 (mixture of isomers) [NAD135]", "GSK3β (Homo sapiens, UniProt P49841)", 60.8),
    ("N[C@@H]1C=CC(n2c3ccccc3c3c4c(c5c6ccccc6[nH]c5c32)C(=O)NC4=O)C1 (mixture of isomers) [NAD116]", "GSK3β (Homo sapiens, UniProt P49841)", 18.4),
    ("CCOC(=O)N1C(=O)c2c(c3c4ccccc4n(C4C=C[C@H](NC(C)=O)C4)c3c3[nH]c4ccccc4c23)C1=O (mixture of isomers) [NAD117]", "GSK3β (Homo sapiens, UniProt P49841)", 25),
    ("N[C@H]1C=CC(n2c3ccccc3c3c4c(c5c6ccccc6[nH]c5c32)C(=O)NC4=O)C1 (mixture of isomers) [NAD040]", "GSK3β (Homo sapiens, UniProt P49841)", 69.8),
    ("O=C1NC(=O)c2c1c1c3ccccc3[nH]c1c1c2c2ccccc2n1C1C=C[C@H](O)C1 (mixture of isomers) [NAD162]", "GSK3β (Homo sapiens, UniProt P49841)", 61.2),
    ("CC(=O)O[C@H]1C=CC(n2c3ccccc3c3c4c(c5c6ccccc6[nH]c5c32)C(=O)NC4=O)CC1 (mixture of isomers) [NAD106]", "GSK3β (Homo sapiens, UniProt P49841)", 25.4),
    ("CC(=O)O[C@H]1CC(n2c3ccccc3c3c4c(c5c6ccccc6[nH]c5c32)C(=O)NC4=O)[C@H](O)[C@@H]1O (mixture of isomers) [NAD160]", "GSK3β (Homo sapiens, UniProt P49841)", 30.2),
]
